The entries below come with measured Emax values attached.
target: recombinant human Meningioma Expressed Antigen 5 (MGEA5), also referred to as O-GlcNAcase (OGA) (Homo sapiens, UniProt O60502); construct: Full length OGA enzyme was purchased at OriGene (cat # TP322411); purchased OriGene TP322411; experiment: OGA biochemical assay: inhibition of FM-GlcNAc hydrolysis, fluorescence; protocol A (10 nM OGA, 1 h) or protocol B (2 nM OGA, 6 h); details: Enzymatic protocol B (2 nM OGA, 6 h)
Sequence (O60502 whole entry): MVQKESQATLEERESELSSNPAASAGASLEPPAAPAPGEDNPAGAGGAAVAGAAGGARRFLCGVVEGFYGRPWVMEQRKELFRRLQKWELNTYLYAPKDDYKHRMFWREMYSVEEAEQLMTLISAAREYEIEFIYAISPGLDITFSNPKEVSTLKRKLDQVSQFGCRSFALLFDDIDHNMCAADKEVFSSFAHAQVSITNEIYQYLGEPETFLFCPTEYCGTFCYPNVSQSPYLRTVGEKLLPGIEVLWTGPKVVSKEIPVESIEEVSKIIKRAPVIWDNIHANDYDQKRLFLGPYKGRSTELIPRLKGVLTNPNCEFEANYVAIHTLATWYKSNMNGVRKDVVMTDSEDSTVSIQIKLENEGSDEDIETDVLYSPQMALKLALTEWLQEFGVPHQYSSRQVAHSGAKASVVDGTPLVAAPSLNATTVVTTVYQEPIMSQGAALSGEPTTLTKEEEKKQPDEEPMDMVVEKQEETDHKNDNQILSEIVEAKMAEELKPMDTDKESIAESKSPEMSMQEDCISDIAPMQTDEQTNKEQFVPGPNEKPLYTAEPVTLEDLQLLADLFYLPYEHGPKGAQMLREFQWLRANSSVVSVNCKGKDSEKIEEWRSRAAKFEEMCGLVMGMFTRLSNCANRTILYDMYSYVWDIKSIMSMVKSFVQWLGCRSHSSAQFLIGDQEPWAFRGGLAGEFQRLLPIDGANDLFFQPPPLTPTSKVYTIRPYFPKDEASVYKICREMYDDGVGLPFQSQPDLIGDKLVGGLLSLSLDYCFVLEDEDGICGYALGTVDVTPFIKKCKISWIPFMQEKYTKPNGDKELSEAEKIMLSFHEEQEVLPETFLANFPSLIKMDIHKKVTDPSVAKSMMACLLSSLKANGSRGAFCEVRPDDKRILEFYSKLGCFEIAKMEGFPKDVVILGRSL
Express it in %; write the number only.

Examples with answers:
>>> assay_value("CC(=O)Nc1ncc(CN2CC[C@H](Cc3cc(C(F)(F)F)cnc3C)C2)s1")
98.3
>>> assay_value("Cc1cc(C[C@H]2CCN(C(C)c3ccc4sc(C)nc4c3)C2)cc(C)n1 (mixture of isomers)")
101

What does the data say about its Emax? Entry: CC(=O)Nc1ncc(C(C)N2CCCC(COc3cc(C)nc(C)c3)C2)s1 (single isomer, unassigned) [compound 134]
100

What does the data say about its Emax? Entry: CC(=O)Nc1ncc(CN2CC[C@H](Cc3cc(C)c(C)cn3)C2)s1
103

What does the data say about its Emax? Entry: Cc1cc([C@H]2CCCN([C@@H](C)c3ccc4sc(C)nc4c3)C2)cc(C)n1
102

What does the data say about its Emax? Entry: Cc1cc(N[C@H]2CCCN(Cc3ccc4nccnc4c3)C2)cc(C)n1
92.9

What does the data say about its Emax? Entry: CC(=O)Nc1ncc(CN2CCCC(c3ccnc(C)c3)C2)s1 (centres unmarked)
101

What does the data say about its Emax? Entry: CC(=O)Nc1ncc(CN2CC[C@@H](Cc3ccc(C(F)(F)F)c(C)n3)C2)s1
99

src = patent US20200079766A1
